Note to self: these compounds have pKi reported for 5-hydroxytryptamine receptor 6 (Homo sapiens) in various publications.
One number for each entry, as −log10 of the molar value.

CCCn1nc(S(=O)(=O)c2cccc3ccccc23)c2cc(N3CCN(C)CC3)ccc21 ... 8.74

Provide the reported pKi of each entry below, same order.
1. O=C1Nc2ccc(F)cc2C1CCCCN1CCN(c2ccccc2)CC1 (configuration not stated)
2. O=S(=O)(c1cccc(F)c1)n1c2c(c3ccccc31)CCNCC2

1: 5.74; 2: 7.48

Provide the reported pKi of each entry below, same order.
1. O=S(=O)(c1cn(C2CCNC2)c2ncccc12)c1cccc2cccnc12 (configuration not stated)
2. CNCC1Cc2ccc3c(ccn3S(=O)(=O)c3ccccc3)c21 (configuration not stated)

1. 8.24
2. 8.80

Provide the reported pKi of each entry below, same order.
1. CN1CCN(c2ccc3[nH]nc(S(=O)(=O)c4ccccc4)c3c2)CC1
2. CN1CCC(n2cc(S(=O)(=O)c3c(Cl)nc4sccn34)c3cccnc32)C1 (configuration not stated)
3. CCN1CCN(Cc2ccc3c(ccn3S(=O)(=O)c3ccc(Cl)cc3)c2)CC1

1. 8.72
2. 9.10
3. 7.55

Provide the reported pKi of each entry below, same order.
1. CN1CCN(c2cccc3c(S(=O)(=O)c4cccc5ccccc45)n[nH]c23)CC1
2. c1ccc2oc(-c3csc(C4CCN(Cc5nc6ncccc6[nH]5)CC4)n3)cc2c1

8.34
5.28
